Reference for the values: ChEMBL document CHEMBL1629677

# ASSAY EXPLANATION: Cytotoxicity against human A549 cells after 48 hrs by celltiter-glo luminescent cell viability assay
# Type: cell-based

[
  {
    "INPUT SMILES": "Clc1ccc(-c2ccc(-c3ccnc(N4CCNCC4)n3)s2)cc1",
    "CC50 at 48 h": "> 20 µM"
  },
  {
    "INPUT SMILES": "CC1(C)CC(Nc2nccc(-c3ccc(-c4ccc(Cl)cc4)s3)n2)CC(C)(C)N1",
    "CC50 at 48 h": "> 20 µM"
  },
  {
    "INPUT SMILES": "CC(=O)c1cccc(-c2ccc(-c3ccnc(NC4CC(C)(C)NC(C)(C)C4)n3)s2)c1",
    "CC50 at 48 h": "> 20 µM"
  },
  {
    "INPUT SMILES": "Clc1ccc(-c2ccc(-c3nc(NCc4cccnc4)nc4ccccc34)s2)cc1",
    "CC50 at 48 h": "> 20 µM"
  },
  {
    "INPUT SMILES": "CC1(C)CC(Nc2nc(-c3ccc(-c4ccc(Cl)cc4)s3)c3ccccc3n2)CC(C)(C)N1",
    "CC50 at 48 h": "18.6 µM"
  },
  {
    "INPUT SMILES": "CC(C)(N)/C=C/c1cccc(-c2ccc(-c3ccnc(NC4CC(C)(C)NC(C)(C)C4)n3)s2)n1",
    "CC50 at 48 h": "> 20 µM"
  }
]

====

# System: dengue virus type 3
# ASSAY EXPLANATION: Antiviral activity against DENV-3 isolate My99-21531 infected in Cricetinae BHK21 cells assessed as decrease in viral E protein production after 48 hrs by CFI assay
# Type: functional, organism-based
# PARTICULARS: isolate My99-21531, BHK-21, 48 h
pEC50: −log10 of the molar value.

[
  {
    "INPUT SMILES": "Clc1ccc(-c2ccc(-c3nc(NCc4cccnc4)nc4ccccc34)s2)cc1",
    "pEC50": 6.30
  }
]
